Reference source for all entries: patent US11339178B2

Listed here are molecules together with their documented pIC50.
- test system: E. coli (EcGUS) β-Glucuronidase (Escherichia coli, UniProt P05804)
- Sequence (P05804 whole entry): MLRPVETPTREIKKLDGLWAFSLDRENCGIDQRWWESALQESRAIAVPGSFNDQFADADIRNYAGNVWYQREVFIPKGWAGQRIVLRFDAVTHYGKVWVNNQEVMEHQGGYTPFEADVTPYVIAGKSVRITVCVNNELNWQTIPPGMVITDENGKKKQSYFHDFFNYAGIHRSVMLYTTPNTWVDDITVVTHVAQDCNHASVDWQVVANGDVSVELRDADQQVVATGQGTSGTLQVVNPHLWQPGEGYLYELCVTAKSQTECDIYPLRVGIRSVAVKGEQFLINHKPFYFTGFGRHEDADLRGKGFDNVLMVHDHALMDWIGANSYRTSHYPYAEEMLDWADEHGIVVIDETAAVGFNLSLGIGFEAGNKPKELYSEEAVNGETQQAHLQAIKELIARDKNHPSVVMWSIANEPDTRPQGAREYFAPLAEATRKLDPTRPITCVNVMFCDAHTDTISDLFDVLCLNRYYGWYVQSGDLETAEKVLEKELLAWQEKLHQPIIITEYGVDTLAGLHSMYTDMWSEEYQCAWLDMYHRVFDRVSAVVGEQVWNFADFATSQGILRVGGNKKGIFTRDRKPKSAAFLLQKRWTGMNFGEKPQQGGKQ
- assay comment: In vitro GUS inhibition, PNPG cleavage by purified E. coli GUS
- Assay type: biochemical
- setup conditions: PNPG substrate, 37° C., 2 hours; NI = no inhibition
pIC50 (log units): -log10 of the concentration in mol/L.

Fc1ccc(CNc2nc3sc4c(N5CCNCC5)nnnc4c3c3c2CCCC3)cc1 :: 6.68
c1cnc2sc3c(N4CCNCC4)nnnc3c2c1 :: 5.85
CN(C)c1nc2sc3c(NCCN)nnnc3c2c2c1CCCC2 :: 4.92

Query: What value of pIC50 has been reported for the following molecule? Clc1nc(N2CCNCC2)c2sc3nc(N4CCOCC4)ccc3c2n1
Reply: 7.52

Query: What value of pIC50 has been reported for the following molecule? CC1CN(c2nnnc3c2sc2nc(N4CCOCC4)c4c(c23)CCCC4)CCN1 (stereo not drawn)
Reply: 5.27

Query: What value of pIC50 has been reported for the following molecule? c1nc(N2CCNCC2)c2sc3nc(N4CCOCC4)ccc3c2n1
Reply: 6.89

Query: What value of pIC50 has been reported for the following molecule? CC1(C)CCc2c(N3CCOCC3)nc3sc4c(N5CCNCC5)nnnc4c3c2C1
Reply: 6.21

Query: What value of pIC50 has been reported for the following molecule? COc1nc(N2CCNCC2)c2sc3nc(-c4ccccc4)ccc3c2n1
Reply: 6.85

Query: What value of pIC50 has been reported for the following molecule? CNc1nc2sc3c(N4CCNCC4)nnnc3c2c2c1CCCC2
Reply: 7.15

Query: What value of pIC50 has been reported for the following molecule? C[N+]1(C)CCN(c2nnnc3c2sc2nc(N4CCOCC4)c4c(c23)CCCC4)CC1
Reply: 5.22

Query: What value of pIC50 has been reported for the following molecule? Clc1nc(N2CCNCC2)c2sc3nc(N4CCOCC4)c4c(c3c2n1)CCCC4
Reply: 6.05

Query: What value of pIC50 has been reported for the following molecule? NN1CCN(c2nnnc3c2sc2nc(N4CCOCC4)c4c(c23)CCCC4)CC1
Reply: 5.30

###

Hi! I'm sharing some pIC50 results obtained with C. perfringens (CpGUS) β-Glucuronidase (Clostridium perfringens).
Sequence (Q8XP19 whole entry, looked up): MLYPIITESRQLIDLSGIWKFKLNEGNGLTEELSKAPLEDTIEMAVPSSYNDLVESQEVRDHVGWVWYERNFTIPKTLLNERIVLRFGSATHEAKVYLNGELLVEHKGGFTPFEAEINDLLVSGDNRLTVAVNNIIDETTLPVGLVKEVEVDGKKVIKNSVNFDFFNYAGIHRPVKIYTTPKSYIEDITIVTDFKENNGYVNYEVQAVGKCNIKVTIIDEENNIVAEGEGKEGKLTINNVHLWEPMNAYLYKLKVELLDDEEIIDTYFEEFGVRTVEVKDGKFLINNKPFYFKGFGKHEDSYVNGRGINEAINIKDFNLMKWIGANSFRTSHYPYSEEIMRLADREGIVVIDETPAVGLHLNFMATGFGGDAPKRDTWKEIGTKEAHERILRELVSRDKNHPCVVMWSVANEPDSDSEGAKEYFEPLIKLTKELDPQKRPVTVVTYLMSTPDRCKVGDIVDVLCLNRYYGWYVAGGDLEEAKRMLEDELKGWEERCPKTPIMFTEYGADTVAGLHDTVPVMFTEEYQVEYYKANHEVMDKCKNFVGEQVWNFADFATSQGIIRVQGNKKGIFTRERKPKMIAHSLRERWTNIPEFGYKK
pIC50 (log units): -log10 of the concentration in mol/L.

CNc1nc2sc3c(N4CCNCC4)nnnc3c2c2c1CCCC2 [Compound 16] :: 6.74
CNc1nc(N2CCNCC2)c2sc3nc(-c4ccccc4)ccc3c2n1 [Compound 24] :: 6.35
CNc1nc(N2CCNCC2)c2sc3nc(N(C)C)ccc3c2n1 [Compound 28] :: 6.55
c1cc2c(nc1N1CCOCC1)sc1c(N3CCNCC3)nnnc12 [Compound 19] :: 6.66
C[C@H]1CN(c2nnnc3c2sc2nc(N4CCOCC4)c4c(c23)CCCC4)CCN1 [Compound 7] :: 5.38

Query: Kindly state the measured pIC50 obtained for C[C@@H]1CN(c2nnnc3c2sc2nc(N4CCOCC4)c4c(c23)CCCC4)CCN1 [Compound 6] with C. perfringens (CpGUS) β-Glucuronidase (Clostridium perfringens).
Reply: 5.41

Query: Kindly state the measured pIC50 obtained for c1ccc(-c2ccc3c(n2)sc2c(N4CCNCC4)ncnc23)cc1 [Compound 23] with C. perfringens (CpGUS) β-Glucuronidase (Clostridium perfringens).
Reply: 6.36
